- Target Desc: UniProt:Q96EB6
- Assay Info: Trp mass spectrometry assay of SIRT1 activity
- Type: biochemical
- Study Conditions: Trp assay; concentration giving 150% activation of SIRT1
Reported Property: Trp EC1.5 (μM)

Cc1nc2c(OC[C@H](O)CO)cc(-c3ccccc3C(F)(F)F)nn2c1C(=O)Nc1ccccn1 ... A (EC1.5<1 μM)
Cc1nc2ccc(-c3ccccc3C(F)(F)F)nn2c1NC(=O)c1cccc(N2CCC2)n1 ... B (EC1.5 1-25 μM)
CCOc1ccc(NC(=O)c2cnn3ccc(-c4ccccc4OC(F)(F)F)nc23)nn1 ... B (EC1.5 1-25 μM)
Cc1nc2c(OC[C@H](O)CO)cc(-c3ccccc3C(F)(F)F)nn2c1C(=O)Nc1cccnc1 ... A (EC1.5<1 μM)
Cc1cc(C)nc(NC(=O)c2cnc3c(C)c(C)c(-c4ccccc4Cl)nn23)c1 ... C (EC1.5>25 μM)
O=C(Nc1cncc(F)c1)c1cnc2ccc(N3CCC(F)(F)CC3)nn12 ... B (EC1.5 1-25 μM)
Cc1nc2ccc(-c3ccccc3C(F)(F)F)nn2c1NC(=O)c1nccs1 ... C (EC1.5>25 μM)
CN(C)[C@H]1CCN(c2ccc3ncc(C(=O)Nc4ccncc4F)n3n2)C1 ... B (EC1.5 1-25 μM)
Cc1cccnc1NC(=O)c1cnn2ccc(-c3ccccc3C(F)(F)F)nc12 ... B (EC1.5 1-25 μM)
Cc1cc(-c2ccccc2C(F)(F)F)nn2c(C(=O)Nc3ccnc(O[C@@H]4CCOC4)n3)cnc12 ... A (EC1.5<1 μM)

Okay, next one:
Task: Param item = O=C(Nc1ccncn1)c1cnc2ccc(N3CC[C@H](F)C3)nn12 ; retrieve measured Trp EC1.5 (μM).
Output: B (EC1.5 1-25 μM)

###

- Target Desc: UniProt:Q96EB6
- Assay Info: TAMRA based mass spectrometry assay of SIRT1 activity
- Format: biochemical
- Study Conditions: TAMRA peptide substrate; concentration giving 150% activation of SIRT1
Reported Property: TAMRA EC1.5

Worked set:
Cc1nc(C(=O)Nc2cnc3c(C)cc(-c4ccccc4C(F)(F)F)nn23)cs1 ... A (EC1.5<1 μM)
Cc1nn2ccc(-c3ccccc3C(F)(F)F)nc2c1C(=O)Nc1ccccn1 ... A (EC1.5<1 μM)
Cc1cc(C)nc(NC(=O)c2cnn3ccc(-c4ccccc4C(F)(F)F)nc23)c1 ... A (EC1.5<1 μM)
Cc1cc(C)nc(NC(=O)c2cnc3ccc(N4CC[C@@H](F)C4)nn23)c1 ... B (EC1.5 1-25 μM)
Cc1cc(NC(=O)c2cnn3ccc(-c4ccccc4C(F)(F)F)nc23)nc(C)n1 ... A (EC1.5<1 μM)
Cc1cc(-c2ccccc2C(F)(F)F)nn2c(NC(=O)c3cccc(N4CCOCC4)n3)cnc12 ... A (EC1.5<1 μM)
O=C(Nc1ncn2ccc(-c3ccccc3C(F)(F)F)nc12)c1ccncn1 ... B (EC1.5 1-25 μM)
Cc1nc(C(=O)Nc2c(C)nc3ccc(-c4ccccc4C(F)(F)F)nn23)cs1 ... B (EC1.5 1-25 μM)

Task: Param item = Cc1cc(C)nc(NC(=O)c2cnc3ccc(N4CCCC(C(F)(F)F)C4)nn23)c1 (centres unmarked) ; retrieve measured TAMRA EC1.5.
Output: B (EC1.5 1-25 μM)

Task: Param item = Cc1cc(-c2ccccc2C(F)(F)F)nn2c(C(=O)Nc3ccnc(OC4CCOCC4)n3)cnc12 ; retrieve measured TAMRA EC1.5.
Output: A (EC1.5<1 μM)

###

- Target Desc: SIRT1 (Homo sapiens, UniProt Q96EB6)
- Sequence (Q96EB6 1-747): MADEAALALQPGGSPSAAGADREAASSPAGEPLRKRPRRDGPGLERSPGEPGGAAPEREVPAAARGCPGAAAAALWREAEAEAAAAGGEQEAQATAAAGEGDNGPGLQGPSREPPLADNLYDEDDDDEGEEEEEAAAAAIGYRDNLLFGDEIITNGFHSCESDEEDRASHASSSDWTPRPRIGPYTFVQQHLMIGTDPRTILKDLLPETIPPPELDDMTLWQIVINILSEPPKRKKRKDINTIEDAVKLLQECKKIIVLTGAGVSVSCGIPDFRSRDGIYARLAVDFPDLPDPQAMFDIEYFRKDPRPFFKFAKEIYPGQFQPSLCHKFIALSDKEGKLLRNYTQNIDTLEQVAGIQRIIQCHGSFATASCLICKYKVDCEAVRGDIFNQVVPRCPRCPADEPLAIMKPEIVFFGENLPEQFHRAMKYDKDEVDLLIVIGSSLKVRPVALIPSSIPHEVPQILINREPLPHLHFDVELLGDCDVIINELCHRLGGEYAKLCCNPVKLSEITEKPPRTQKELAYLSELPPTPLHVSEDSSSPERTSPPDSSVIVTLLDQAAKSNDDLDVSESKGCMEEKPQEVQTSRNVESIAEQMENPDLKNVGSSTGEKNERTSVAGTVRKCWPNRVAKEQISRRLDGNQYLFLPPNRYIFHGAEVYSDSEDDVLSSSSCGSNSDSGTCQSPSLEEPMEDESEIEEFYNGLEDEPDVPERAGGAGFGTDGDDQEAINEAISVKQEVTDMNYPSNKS
- Assay Info: TAMRA based mass spectrometry assay of SIRT1 activity
- Format: biochemical
- Study Conditions: TAMRA peptide substrate; percent maximum fold activation; read-out: TAMRA % Fold Act
Reported Property: Emax

Task: Form entry - test system: SIRT1 (Homo sapiens, UniProt Q96EB6); read-out: Emax; compound: Cc1cc(C)nc(C(=O)Nc2cnc3ccc(N4CC[C@H](F)C4)nn23)c1
Output: ≥ 350%

Task: Form entry - test system: SIRT1 (Homo sapiens, UniProt Q96EB6); read-out: Emax; compound: O=C(Nc1cccc(N2CCOCC2)n1)c1cnn2ccc(-c3ccccc3OC(F)(F)F)nc12
Output: ≥ 350%

Task: Form entry - test system: SIRT1 (Homo sapiens, UniProt Q96EB6); read-out: Emax; compound: Cc1cc2ncc(NC(=O)c3cnccn3)n2nc1-c1ccccc1C(F)(F)F
Output: ≥ 350%

Task: Form entry - test system: SIRT1 (Homo sapiens, UniProt Q96EB6); read-out: Emax; compound: Cc1cc(C)nc(NC(=O)c2cnn3ccc(-c4ccccc4C(F)(F)F)nc23)c1
Output: ≥ 350%

Task: Form entry - test system: SIRT1 (Homo sapiens, UniProt Q96EB6); read-out: Emax; compound: Cc1cc(NC(=O)c2c(C)nc3c(C)cc(-c4ccccc4C(F)(F)F)nn23)ccn1
Output: ≥ 350%

Task: Form entry - test system: SIRT1 (Homo sapiens, UniProt Q96EB6); read-out: Emax; compound: Cc1nc2c(C)cc(-c3ccccc3C(F)(F)F)nn2c1C(=O)Nc1cccnn1
Output: ≥ 350%

Task: Form entry - test system: SIRT1 (Homo sapiens, UniProt Q96EB6); read-out: Emax; compound: O=C(Nc1nccs1)c1cnn2ccc(-c3ccccc3C(F)(F)F)nc12
Output: ≥ 350%

Task: Form entry - test system: SIRT1 (Homo sapiens, UniProt Q96EB6); read-out: Emax; compound: Cc1nc2ccc(-c3ccccc3C(F)(F)F)nn2c1C(=O)Nc1ccc(F)cn1
Output: ≥ 350%

Task: Form entry - test system: SIRT1 (Homo sapiens, UniProt Q96EB6); read-out: Emax; compound: Cc1cc(-c2ccccc2C(F)(F)F)nn2c(NC(=O)c3cnccn3)cnc12
Output: ≥ 350%

Task: Form entry - test system: SIRT1 (Homo sapiens, UniProt Q96EB6); read-out: Emax; compound: O=C(Nc1ccncc1)c1cnn2ccc(-c3ccccc3OC(F)(F)F)nc12
Output: ≥ 350%

Task: Form entry - test system: SIRT1 (Homo sapiens, UniProt Q96EB6); read-out: Emax; compound: O=C(Nc1cccc(N2CCOCC2)n1)c1cnc2ccc(N3CCCC(C(F)(F)F)C3)nn12 (stereo not drawn)
Output: ≥ 350%

Task: Form entry - test system: SIRT1 (Homo sapiens, UniProt Q96EB6); read-out: Emax; compound: Cc1cc(NC(=O)c2cnn3ccc(-c4ccccc4C(F)(F)F)nc23)cc(C)n1
Output: ≥ 350%

Task: Form entry - test system: SIRT1 (Homo sapiens, UniProt Q96EB6); read-out: Emax; compound: Cc1nc2c(C)cc(-c3ccccc3C(F)(F)F)nn2c1C(=O)Nc1ccnc(OC2CCOCC2)n1
Output: ≥ 350%

Task: Form entry - test system: SIRT1 (Homo sapiens, UniProt Q96EB6); read-out: Emax; compound: Cc1cc(NC(=O)c2cnc3ccc(-c4ccccc4OCC(O)CO)nn23)cc(C)n1 (stereo not drawn)
Output: ≥ 350%

Task: Form entry - test system: SIRT1 (Homo sapiens, UniProt Q96EB6); read-out: Emax; compound: COc1cccc(C(=O)Nc2c(C)nn3ccc(-c4ccccc4C(F)(F)F)nc23)n1
Output: < 350%

Task: Form entry - test system: SIRT1 (Homo sapiens, UniProt Q96EB6); read-out: Emax; compound: Cc1cc(NC(=O)c2cnc3ccc(-c4ccccc4C(F)(F)F)nn23)cc(OC[C@@H](O)CO)n1
Output: ≥ 350%

Task: Form entry - test system: SIRT1 (Homo sapiens, UniProt Q96EB6); read-out: Emax; compound: Cc1cc(-c2ccccc2C(F)(F)F)nn2c(C(=O)Nc3cccnn3)cnc12
Output: ≥ 350%

Task: Form entry - test system: SIRT1 (Homo sapiens, UniProt Q96EB6); read-out: Emax; compound: Cc1nn2ccc(-c3ccccc3C(F)(F)F)nc2c1C(=O)Nc1ccncn1
Output: ≥ 350%

Task: Form entry - test system: SIRT1 (Homo sapiens, UniProt Q96EB6); read-out: Emax; compound: Cc1nn2ccc(-c3ccccc3C(F)(F)F)nc2c1NC(=O)c1cccc(CN2CCOCC2)n1
Output: < 350%

Origin of values: patent US9957271B2
